System: A549 NSCLC
measurement_notes: NCI tumour cell line growth inhibition, 48 h
metric: TGI

// below: answered molecules
• O=[N+]([O-])c1cccc2nc3ccccc3c(NCCCN3CCOCC3)c12 = 0.0674 µM
• COc1ccc(C2ON(c3ccccn3)CC=C2C)cc1 (configuration not stated) = > 100 µM
• CN(C)CC(CO)(CN(C)C)CN(C)C = > 100 µM

// each listed molecule needs a value for TGI
1. CC1=C([Se]CC(OC(=O)[C@@H](CO)NC(=O)OC(C)(C)C)C(=O)NC(C)(C)C)C(=O)c2ccccc2C1=O (some centres not stated)
2. CCCN(CCCCN1C(=O)c2ccccc2C1=O)CC1COc2ccccc2O1 (configuration not stated)
3. CCOC(=O)c1cccc([N+](=O)[O-])c1N
4. CC(=O)[O-].CC(=O)[O-].[NH2-].[Pt+2].c1ccncc1
5. N#CC1CCN2N=C(c3ccccc3)SC12c1ccccc1 (configuration not stated)
6. Cc1ccc(/C(=C/C=C(C#N)C#N)Sc2cc(Cl)ccc2Cl)cc1
7. COc1ccc([N-]/C(=N\n2c(=O)c(C)nn(C)c2=S)N(c2ccc(OC)cc2)c2nn3c(=O)c(C)n[n+](C)c3s2)cc1

1. 9.44 µM
2. > 100 µM
3. > 100 µM
4. > 100 µM
5. > 100 µM
6. > 100 µM
7. > 100 µM

// each listed molecule needs a value for TGI
1. N#CCC(=O)N/N=C1\C(=O)N(c2ccc(Cl)cc2)C(=O)C(=O)C1c1nc2ccccc2o1 (configuration not stated)
2. O=c1cc(-c2ccccc2)oc2ccc(Oc3nnnn3-c3ccccc3)cc12

> 100 µM
> 100 µM

* * *

I'd be grateful if you could share measured TGI for these entries.
System: 786-0 renal
measurement_notes: NCI tumour cell line growth inhibition, 48 h

* O=P1(Oc2ccc(Cl)cc2)OCCS1 (stereo not drawn) | > 100 µM
* CC[CH2][Sn]([Cl])([Cl])[CH2]CC | 23 µM
* Nc1nc(NNc2ccc(Cl)c(Cl)c2)cc(=O)[nH]1 | 67.5 µM

// each listed molecule needs a value for TGI
1. COc1ccc(C2ON(c3ccccn3)CC=C2C)cc1 (stereo not drawn)
2. CC(C)[Si](OC1=C(C(=O)N(C)c2ccccc2Cl)CCC1)(C(C)C)C(C)C
3. CN(C)CCNC(=O)c1cccc2nc3cccc(F)c3nc12

1. > 100 µM
2. 48.9 µM
3. 24.8 µM

// each listed molecule needs a value for TGI
1. CCOC(=O)C(=O)N=Nc1nc2c(O)c3ccccc3c(O)c2s1
2. c1ccc(-c2nn(-c3ccccc3)[n+](-c3cccc4ccccc34)n2)cc1
3. O=C1NC(=O)C(C(c2ccc(Cl)cc2)C2C(=O)NC(=O)NC2=O)C(=O)N1
4. COc1ccc2c(c1)nc1n2C(c2c(F)cccc2Cl)SC1 (stereo not drawn)
5. CN1CCN(C(=S)N(C(=O)c2ccco2)c2ccccc2)CC1
6. C/C(=N/NC(=O)C(N)=O)C(CC(C(=O)Nc1ccccc1C)/C(C)=N\NC(=O)C(N)=O)C(=O)Nc1ccccc1C (stereo not drawn)
7. COc1ccccc1S(=O)Nc1ccccc1 (stereo not drawn)
8. COC(=O)C1C2C=CC(C2)N1S(=O)(=O)c1ccccc1 (stereo not drawn)

1. 22.8 µM
2. 29.3 µM
3. > 100 µM
4. > 41.1 µM
5. > 100 µM
6. > 100 µM
7. > 100 µM
8. > 100 µM

// each listed molecule needs a value for TGI
1. CCCCN(CCCC)CCCN=c1nc2c(c(N)n1-c1ccccc1)c(=S)n(-c1ccccc1)c(=S)n2-c1ccccc1
2. Cc1ccc(S(=O)(=O)Oc2cc(S(=O)(=O)O)cc3cc(S(=O)(=O)O)cc(N)c23)cc1

1: 1.08 µM; 2: > 100 µM

// each listed molecule needs a value for TGI
1. NC(=S)N1N=C2c3ccccc3CC[C@H]2[C@@H]1c1cccs1
2. CC(=O)OCC12C(OC(C)=O)C[C@@H](C)C3(CC(c4ccoc4)OC3=O)C1CCC(O)C21CO1 (stereo partly drawn)
3. COC(=O)/C=C1/N=C(N(C)/N=C/c2ccccc2)NC1=O
4. N=C(N)n1[nH]c2c(c1=O)CCCC2
5. CC(=O)OC1CCC2(C)C(=CCC3C2CCC2(C)C(C(C)C(=O)O)CCC32)C1 (stereo not drawn)
6. CCCCCC(=O)OCC1(CO)C/C(=C\CC(C(C)C)C(C)C)C(=O)O1 (stereo not drawn)

["> 100 µM", "> 100 µM", "> 100 µM", "> 100 µM", "> 100 µM", "> 100 µM"]

Can you share its TGI? I mean this molecule: `CN1c2ccccc2S(=O)(=O)n2c(COc3ccc(Cl)cc3)nnc21`
> 100 µM
